Target: Full-length (FL)-PRMT5-MEP50 enzyme complex (Homo sapiens, UniProt O14744)
Construct: Full-length (FL)-PRMT5-MEP50 enzyme complex (recombinant proteins from baculovirus-transfected Sf21 cells: FL-PRMT5; MW=73837 kDa and FL-MEP50; MW=38614); made in house; host or cells: baculovirus-transfected Sf21 insect cells
Sequence (O14744 whole entry): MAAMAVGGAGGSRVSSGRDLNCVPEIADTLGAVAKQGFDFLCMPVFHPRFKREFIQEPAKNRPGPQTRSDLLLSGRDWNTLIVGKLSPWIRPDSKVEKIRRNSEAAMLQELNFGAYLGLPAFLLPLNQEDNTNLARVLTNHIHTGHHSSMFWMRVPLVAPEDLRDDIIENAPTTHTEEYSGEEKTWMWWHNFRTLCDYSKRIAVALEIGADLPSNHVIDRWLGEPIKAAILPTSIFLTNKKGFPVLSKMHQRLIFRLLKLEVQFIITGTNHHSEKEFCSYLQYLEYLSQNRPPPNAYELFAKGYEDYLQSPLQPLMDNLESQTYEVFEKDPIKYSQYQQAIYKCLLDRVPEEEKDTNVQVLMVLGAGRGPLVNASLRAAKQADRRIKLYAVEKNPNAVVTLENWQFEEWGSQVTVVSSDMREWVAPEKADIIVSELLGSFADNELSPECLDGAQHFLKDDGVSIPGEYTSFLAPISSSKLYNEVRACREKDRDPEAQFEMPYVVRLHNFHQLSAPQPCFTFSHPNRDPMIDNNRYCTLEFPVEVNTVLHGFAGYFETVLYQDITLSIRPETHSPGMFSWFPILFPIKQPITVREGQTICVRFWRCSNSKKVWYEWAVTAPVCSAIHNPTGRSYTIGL
Sequence (Q9BQA1 whole entry partner): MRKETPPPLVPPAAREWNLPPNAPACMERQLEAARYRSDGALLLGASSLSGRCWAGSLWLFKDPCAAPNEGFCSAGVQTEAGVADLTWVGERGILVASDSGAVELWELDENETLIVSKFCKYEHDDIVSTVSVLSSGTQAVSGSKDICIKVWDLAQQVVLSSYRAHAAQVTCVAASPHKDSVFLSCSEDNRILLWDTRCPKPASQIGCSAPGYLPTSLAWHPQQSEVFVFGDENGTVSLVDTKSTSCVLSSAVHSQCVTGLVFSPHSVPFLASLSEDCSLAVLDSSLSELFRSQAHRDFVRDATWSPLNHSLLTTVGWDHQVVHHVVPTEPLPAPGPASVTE
Experiment: PRMT5-MEP50 Enzyme Methylation Assay
Type: biochemical
Conditions: one EC50: 4 parameters single site sigmoidal model; EC50 1: first value of 7 parameters biphasic model; 1.0 nM PRMT5-MEP50, 75 nM biotinylated peptide, 15 μM SAM; read-out: Enzyme Methylation Assay (EC50 or EC50 1)
pEC50: −log10 of the molar value.
// reported pEC50 per item
attributeMeasured: pEC50

* Cc1ncnc2c1ccn2[C@@H]1O[C@@H]2[C@H](Cc3ccc4cc(Br)c(N)nc4c3)CC[C@]2(O)[C@H]1O [Example 8] | 9.30
* Cc1ncnc2c1ccn2[C@@H]1O[C@@H]2[C@H](Cc3ccc4cc(C(F)(F)F)c(N)nc4c3)CC[C@]2(O)[C@H]1O [Example 88] | 9.70
* Cc1nc(N)c2ccn([C@@H]3O[C@@H]4[C@H](Cc5ccc6cc(Br)c(N)nc6c5)CC[C@]4(O)[C@H]3O)c2n1 [Example 61] | 9.30
* C[C@]1(CCc2ccc3cc(Br)c(N)nc3c2)C[C@@H](n2ccc3c(N)ncnc32)[C@H](O)[C@@H]1O [Example 15] | 9.10
* C[C@@]1(O)[C@@H](COc2ccc3cccnc3c2)O[C@@H](n2ccc3c(N)ncnc32)[C@@H]1O [Example 99] | 8.77
* C[C@]1(O)[C@@H](O)[C@H](n2ccc3c(N)ncnc32)C[C@]1(O)CCc1ccc2cc(Br)c(N)nc2c1 [Example 118] | 8.49
* Cc1ncnc2c1ccn2[C@@H]1O[C@@H]2[C@H](Oc3ccc4cc(Br)c(N)nc4c3)CC[C@]2(O)[C@H]1O [Example 129] | 7.47

====

Molecular target: Full-length (FL)-PRMT5-MEP50 enzyme complex (Homo sapiens, UniProt O14744)
Construct: Full-length (FL)-PRMT5-MEP50 enzyme complex (recombinant proteins from baculovirus-transfected Sf21 cells: FL-PRMT5; MW=73837 kDa and FL-MEP50; MW=38614); made in house; host or cells: baculovirus-transfected Sf21 insect cells
Assay: PRMT5-MEP50 Enzyme Methylation Assay
Format: biochemical
Details: one EC50: 4 parameters single site sigmoidal model; EC50 1: first value of 7 parameters biphasic model; 1.0 nM PRMT5-MEP50, 75 nM biotinylated peptide, 15 μM SAM; read-out: Enzyme Methylation Assay (EC50 or EC50 1)
pEC50: −log10 of the molar value. Where a name gives a salt, the structure may show the parent alone.
pEC50: recorded values
attributeMeasured: pEC50

- Nc1nc2cc(O[C@H]3CC[C@@]4(O)[C@@H]3O[C@@H](n3ccc5c(Cl)ncnc53)[C@@H]4O)ccc2cc1Br [Example 5]: 9.10
- Nc1ncc2ccn([C@@H]3O[C@@H]4[C@@H](Oc5ccc6cc(Br)c(N)nc6c5)CC[C@]4(O)[C@H]3O)c2n1 [compound 46, dihydrochloride]: 9.30
- Nc1nc2cc(C[C@@H]3CC[C@@]4(O)[C@@H]3O[C@@H](n3ccc5c(C6CC6)ncnc53)[C@@H]4O)ccc2cc1Br [Example 87]: 9.30
- Cc1ncnc2c1ccn2[C@@H]1O[C@@H]2[C@H](Cc3ccc4cc(Cl)c(N)nc4c3F)CC[C@]2(O)[C@H]1O [Example 22]: 9.00
- Nc1nc2cc(C[C@@H]3CC[C@@]4(O)[C@@H]3C[C@@H](n3cc(F)c5c(N)ncnc53)[C@@H]4O)ccc2cc1F [Example 33]: 9.22
- Nc1nc2cc(C[C@@H]3CC[C@@]4(O)[C@@H]3O[C@@H](n3cc(F)c5c(N)ncnc53)[C@@H]4O)ccc2cc1Cl [Example 68]: 9.30

====

Target: Full-length (FL)-PRMT5-MEP50 enzyme complex (Homo sapiens, UniProt O14744)
Construct: Full-length (FL)-PRMT5-MEP50 enzyme complex (recombinant proteins from baculovirus-transfected Sf21 cells: FL-PRMT5; MW=73837 kDa and FL-MEP50; MW=38614); made in house; host or cells: baculovirus-transfected Sf21 insect cells
Assay: PRMT5-MEP50 Enzyme Methylation Assay
Type: biochemical
Details: one EC50: 4 parameters single site sigmoidal model; EC50 1: first value of 7 parameters biphasic model; 1.0 nM PRMT5-MEP50, 75 nM biotinylated peptide, 15 μM SAM; read-out: Enzyme Methylation Assay (EC50 or EC50 1)
Listed compounds paired with reported log10 EC50
attributeMeasured: log10 EC50 (log10 of the value in nM)

* Cc1ncnc2c1ccn2[C@@H]1O[C@@H]2[C@@H](Oc3ccc4cc(F)c(N)nc4c3)CC[C@]2(O)[C@H]1O | -0.30
* CNc1ncnc2c1ccn2[C@@H]1O[C@@H]2[C@H](Cc3ccc4cc(F)c(N)nc4c3)CC[C@]2(O)[C@H]1O | 0.45
* Nc1nc2c(F)c(C[C@@H]3CC[C@@]4(O)[C@@H]3O[C@@H](n3ccc5c(N)ncnc53)[C@@H]4O)ccc2cc1Cl | 0.04
* Nc1nc2cc(C[C@H]3[C@H]4O[C@@H](n5ccc6c(N)ncnc65)[C@H](O)[C@@]4(O)C[C@@H]3F)ccc2cc1F | -0.52
* Cc1ncnc2c1ccn2[C@@H]1O[C@@H]2[C@H](Cc3ccc4cc(Br)c(N)nc4c3)OC[C@]2(O)[C@H]1O | -0.10
* Nc1nc2cc(CC3OC[C@@]4(O)C3C[C@@H](n3ccc5c(N)ncnc53)[C@@H]4O)ccc2cc1Br (stereo partly shown) | 0.59
* Nc1nc2cc(O[C@H]3CC[C@@]4(O)[C@@H]3O[C@@H](n3ccc5cncnc53)[C@@H]4O)ccc2cc1Br | 0.08

====

Biological target: Full-length (FL)-PRMT5-MEP50 enzyme complex (Homo sapiens, UniProt O14744)
Construct: Full-length (FL)-PRMT5-MEP50 enzyme complex (recombinant proteins from baculovirus-transfected Sf21 cells: FL-PRMT5; MW=73837 kDa and FL-MEP50; MW=38614); made in house; host or cells: baculovirus-transfected Sf21 insect cells
Assay: PRMT5-MEP50 Enzyme Methylation Assay
Assay type: biochemical
Conditions: one EC50: 4 parameters single site sigmoidal model; EC50 1: first value of 7 parameters biphasic model; 1.0 nM PRMT5-MEP50, 75 nM biotinylated peptide, 15 μM SAM; read-out: Enzyme Methylation Assay (EC50 or EC50 1)
pEC50: −log10 of the molar value.
Listed compounds paired with reported pEC50
attributeMeasured: pEC50

- Cc1cn([C@@H]2C[C@@H]3[C@H](Cc4cc(F)c5cc(F)c(N)nc5c4)CC[C@]3(O)[C@H]2O)c2ncnc(N)c12: 9.30
- Cc1cn([C@@H]2O[C@@H]3[C@H](Cc4ccc5cc(F)c(N)nc5c4)CC[C@]3(O)[C@H]2O)c2ncnc(N)c12 [Example 62, 2,2,2-trifluoroacetate]: 9.30
- Nc1nc2cc(C[C@@H]3OC[C@@]4(O)[C@@H]3O[C@@H](n3ccc5c(N)ncnc53)[C@@H]4O)ccc2cc1Br: 9.30
- Cc1ncnc2c1c(F)cn2[C@@H]1O[C@@H]2[C@H](Cc3ccc4cc(Br)c(N)nc4c3)CC[C@]2(O)[C@H]1O: 9.22
- Cc1cn([C@@H]2O[C@@H]3[C@H](Cc4ccc5cc(Cl)c(N)nc5c4)CC[C@]3(O)[C@H]2O)c2ncnc(N)c12: 9.52
- Nc1nc2cc(C[C@@H]3CC[C@@]4(O)[C@@H]3C[C@@H](n3ccc5c(N)ncnc53)[C@@H]4O)ccc2cc1Br [Example 41, 2,2,2-trifluoroacetate]: 9.15
- Cc1nc(N)nc2c1ccn2[C@@H]1O[C@@H]2[C@@H](Oc3ccc4cc(Br)c(N)nc4c3)CC[C@]2(O)[C@H]1O: 8.85
- CNc1ncnc2c1ccn2[C@@H]1C[C@H](COc2ccc3cc(Br)c(N)nc3c2)[C@@](C)(O)[C@H]1O: 9.30
- Cc1cc2ccc(OC[C@H]3C[C@@H](n4ccc5c(C)ncnc54)[C@H](O)[C@]3(C)O)cc2nc1N: 9.52
- Nc1nc2cc(O[C@H]3CC[C@@]4(O)[C@@H]3O[C@@H](n3cc(F)c5c(N)ncnc53)[C@@H]4O)ccc2cc1Br: 9.70
- Cc1nc(N)c2ccn([C@@H]3O[C@@H]4[C@@H](Oc5ccc6cc(Br)c(N)nc6c5)CC[C@]4(O)[C@H]3O)c2n1: 9.40
- C[C@@]1(O)[C@@H](COc2ccc3cc(Br)c(N)nc3c2)O[C@@H](n2ccc3c(Cl)ncnc32)[C@@H]1O: 9.05
- Nc1nc2cc(O[C@H]3CC[C@@]4(O)[C@@H]3C[C@@H](n3ccc5c(N)ncnc53)[C@@H]4O)ccc2cc1Br [Example 119, 2,2,2-trifluoroacetate]: 9.00
- CNc1ncnc2c1ccn2[C@@H]1O[C@@H]2[C@@H](Oc3ccc4cc(Br)c(N)nc4c3)CC[C@]2(O)[C@H]1O: 9.10
- Cc1ncnc2c1ccn2[C@@H]1O[C@@H]2[C@H](Cc3ccc4cc(Cl)c(N)nc4c3)CC[C@]2(O)[C@H]1O: 9.22
- Nc1nc2cc(C[C@@H]3CC[C@@]4(O)[C@@H]3O[C@@H](n3cc(C5CC5)c5c(N)ncnc53)[C@@H]4O)ccc2cc1F: 9.52
- C[C@@]1(O)[C@@H](COc2ccc3cc(Br)c(N)nc3c2)C[C@@H](n2ccc3c(Cl)ncnc32)[C@@H]1O: 9.30
- CCc1ncnc2c1ccn2[C@@H]1O[C@@H]2[C@@H](Oc3ccc4cc(Br)c(N)nc4c3)CC[C@]2(O)[C@H]1O [Example 82, 2,2,2-trifluoroacetate]: 9.15
- Cc1cn([C@@H]2O[C@@H]3[C@H](Cc4ccc5cc(Br)c(N)nc5c4)CC[C@]3(O)[C@H]2O)c2ncnc(N)c12 [Example 70, 2,2,2-trifluoroacetate]: 9.40
- Cc1cn([C@@H]2O[C@@H]3[C@H](Cc4ccc5cc(Br)c(N)nc5c4)OC[C@]3(O)[C@H]2O)c2ncnc(N)c12: 9.40
- Nc1nc2cc(C[C@@H]3CC[C@@]4(O)[C@@H]3C[C@@H](n3cc(F)c5c(N)ncnc53)[C@@H]4O)ccc2cc1Cl: 9.52
- Cc1nc(C)c2ccn([C@@H]3O[C@@H]4[C@H](Cc5ccc6cc(Cl)c(N)nc6c5)CC[C@]4(O)[C@H]3O)c2n1: 9.40
- CNc1ncnc2c1c(F)cn2[C@@H]1O[C@@H]2[C@H](Cc3ccc4cc(Br)c(N)nc4c3)CC[C@]2(O)[C@H]1O: 9.10
- COc1ncnc2c1ccn2[C@@H]1O[C@](C)(COc2ccc3cc(Br)c(N)nc3c2)[C@@H](O)[C@H]1O: 7.48
- Nc1nc2cc(C[C@@H]3CC[C@@]4(O)[C@@H]3O[C@@H](n3ccc5c(N)ncnc53)[C@@H]4O)cc(F)c2cc1F: 9.52
